Sequence of the target: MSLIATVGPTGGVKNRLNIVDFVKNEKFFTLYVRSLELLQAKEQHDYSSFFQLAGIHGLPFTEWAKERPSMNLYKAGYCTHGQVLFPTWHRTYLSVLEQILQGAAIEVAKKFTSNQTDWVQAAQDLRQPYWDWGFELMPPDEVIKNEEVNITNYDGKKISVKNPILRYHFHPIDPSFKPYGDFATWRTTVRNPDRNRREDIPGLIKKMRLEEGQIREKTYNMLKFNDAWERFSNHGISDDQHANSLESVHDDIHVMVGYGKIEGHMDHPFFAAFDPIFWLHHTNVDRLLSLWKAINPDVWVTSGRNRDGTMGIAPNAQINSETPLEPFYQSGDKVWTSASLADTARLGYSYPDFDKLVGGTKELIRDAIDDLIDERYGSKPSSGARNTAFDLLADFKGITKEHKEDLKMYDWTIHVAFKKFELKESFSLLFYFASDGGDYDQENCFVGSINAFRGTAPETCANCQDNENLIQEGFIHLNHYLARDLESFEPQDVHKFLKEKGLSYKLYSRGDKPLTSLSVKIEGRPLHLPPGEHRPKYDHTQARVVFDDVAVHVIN
pIC50: −log10 of the molar value.
Literature roundup of the protein given by its sequence data, read-out pIC50.
quantity: pIC50

>  <structure.string>
COc1ccc(/C(C)=N/NC(=S)NN)cc1

>  <quantity>
pIC50

>  <recorded.result>
3.96

$$$$
>  <structure.string>
C/C(=N/NC(N)=S)c1ccc(C)cc1

>  <quantity>
pIC50

>  <recorded.result>
6.57

$$$$
>  <structure.string>
O=Cc1ccc(OCOCCO)cc1

>  <quantity>
pIC50

>  <recorded.result>
3.43

$$$$
>  <structure.string>
CCOC(=O)c1ccc(-c2cc(OC)c(O)c(OC)c2)cc1O

>  <quantity>
pIC50

>  <recorded.result>
4.30

$$$$
>  <structure.string>
COc1ccc(NC2=NC(=O)/C(=C/c3cn(-c4ccccc4)nc3-c3ccc(C)cc3)S2)c(OC)c1

>  <quantity>
pIC50

>  <recorded.result>
3.71

$$$$
>  <structure.string>
C[C@]12CC[C@@H](O)[C@@](C)(C(=O)O)[C@@H]1CC[C@]1(C)[C@@H]2CC[C@@H]2[C@H]3[C@H]([C@](C)(O)CO)CC[C@]3(C(=O)O)CC[C@]21C

>  <quantity>
pIC50

>  <recorded.result>
5.06

$$$$
>  <structure.string>
CN1CCN(Cn2nc(Cc3cccc4ccccc34)oc2=S)CC1

>  <quantity>
pIC50

>  <recorded.result>
5.83

$$$$

1. C/C(CCc1ccc(O)cc1)=N\NC(=S)NN
2. C/C(=N\NC(N)=S)c1ccc(NC(=O)c2ccccc2)cc1
Choose between 1 and 2 : whose measured pIC50 value is numerically larger? Indicate which entry you chose by stating its label.
2

---

Literature roundup of the protein given by its sequence data, read-out pIC50.
Protein target, amino acids: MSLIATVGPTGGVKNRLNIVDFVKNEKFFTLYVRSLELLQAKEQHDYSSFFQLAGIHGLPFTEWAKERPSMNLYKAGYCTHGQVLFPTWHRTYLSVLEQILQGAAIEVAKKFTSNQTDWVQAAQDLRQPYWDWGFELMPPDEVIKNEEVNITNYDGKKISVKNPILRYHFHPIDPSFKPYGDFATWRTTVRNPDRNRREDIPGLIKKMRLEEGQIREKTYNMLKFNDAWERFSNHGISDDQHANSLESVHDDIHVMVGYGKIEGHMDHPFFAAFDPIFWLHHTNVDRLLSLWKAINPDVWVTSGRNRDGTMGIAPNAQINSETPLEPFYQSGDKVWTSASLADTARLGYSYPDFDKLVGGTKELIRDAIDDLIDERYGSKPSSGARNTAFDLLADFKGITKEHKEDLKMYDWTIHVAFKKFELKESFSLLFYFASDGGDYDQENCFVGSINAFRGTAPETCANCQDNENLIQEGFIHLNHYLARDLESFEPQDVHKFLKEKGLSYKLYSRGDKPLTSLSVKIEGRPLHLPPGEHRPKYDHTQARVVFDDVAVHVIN
pIC50: −log10 of the molar value.
quantity: pIC50

>  <molecule>
C/C(=N\NC(N)=S)c1cccc(NC(=O)Cc2ccccc2)c1

>  <pIC50>
5.75

$$$$

a. COc1ccc(C2NC(=S)NC(C)=C2C(C)=O)cc1 (stereo unspecified)
b. C/C(=N/NC(N)=S)c1ccc(O)cc1O
Pick one, a or b : lowest reported pIC50. Indicate which entry you chose by stating its label.
a
(a: 1.60, b: 6.24)

---

assay.target: Tyrosinase (Agaricus bisporus, UniProt O42713)
Sequence (O42713 whole entry): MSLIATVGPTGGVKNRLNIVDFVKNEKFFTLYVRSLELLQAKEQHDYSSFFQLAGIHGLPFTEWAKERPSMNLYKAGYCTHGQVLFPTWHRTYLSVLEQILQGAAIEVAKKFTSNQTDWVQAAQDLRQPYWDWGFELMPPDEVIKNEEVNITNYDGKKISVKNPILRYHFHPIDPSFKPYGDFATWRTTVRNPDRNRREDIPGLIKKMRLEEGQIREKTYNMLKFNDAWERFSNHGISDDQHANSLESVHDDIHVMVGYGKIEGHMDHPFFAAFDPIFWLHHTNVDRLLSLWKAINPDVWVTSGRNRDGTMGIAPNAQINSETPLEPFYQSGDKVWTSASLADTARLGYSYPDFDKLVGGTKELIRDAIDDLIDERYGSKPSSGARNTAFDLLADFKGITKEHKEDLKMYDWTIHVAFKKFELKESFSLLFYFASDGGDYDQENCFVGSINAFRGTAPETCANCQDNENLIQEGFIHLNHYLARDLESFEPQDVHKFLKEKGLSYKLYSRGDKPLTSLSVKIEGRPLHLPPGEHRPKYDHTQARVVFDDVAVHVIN
Literature roundup of Tyrosinase (Agaricus bisporus, UniProt O42713) data, read-out IC50.
quantity: IC50 (µM)

Consider the reported IC50 for these compounds:
>  <compound>
Oc1ccccc1C(O)/C=C/c1ccccn1 (stereo not given)

>  <unit.abbrev>
µM

>  <IC50>
1.7

$$$$
>  <compound>
O/N=C(\C=C\c1ccccn1)c1cc2ccccc2cc1O

>  <unit.abbrev>
µM

>  <IC50>
20.2

$$$$
>  <compound>
O=C(NCc1cc(O)c(O)c(O)c1)c1cc(O)c(O)c(O)c1

>  <unit.abbrev>
µM

>  <IC50>
555

$$$$

1. C/C(=N\NC(N)=S)c1ccc(NC(=O)C(Cl)(Cl)Cl)cc1
2. O=C(O)CSc1nnc(NC(=S)Nc2ccc(Cl)cc2)s1
Pick one, 1 or 2 : lowest reported IC50. Indicate which entry you chose by stating its label.
1

---

Literature roundup of the protein given by its sequence data, read-out pIC50.
Target chain: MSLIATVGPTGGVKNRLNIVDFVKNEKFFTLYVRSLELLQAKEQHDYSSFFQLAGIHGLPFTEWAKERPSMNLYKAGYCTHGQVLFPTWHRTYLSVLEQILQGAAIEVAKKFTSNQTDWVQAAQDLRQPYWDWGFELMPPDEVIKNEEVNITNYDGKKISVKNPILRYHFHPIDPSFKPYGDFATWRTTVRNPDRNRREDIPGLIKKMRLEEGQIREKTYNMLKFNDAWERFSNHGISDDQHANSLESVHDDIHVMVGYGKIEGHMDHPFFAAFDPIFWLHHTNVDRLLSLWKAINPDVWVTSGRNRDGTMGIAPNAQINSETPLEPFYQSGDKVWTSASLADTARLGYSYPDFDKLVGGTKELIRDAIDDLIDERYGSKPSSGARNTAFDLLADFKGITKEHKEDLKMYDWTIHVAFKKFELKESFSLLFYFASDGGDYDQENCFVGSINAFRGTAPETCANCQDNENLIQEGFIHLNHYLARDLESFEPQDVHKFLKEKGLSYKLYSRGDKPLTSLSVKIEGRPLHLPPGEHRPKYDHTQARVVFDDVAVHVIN
pIC50: −log10 of the molar value.
quantity: pIC50

Consider the reported pIC50 for these compounds:
>  <compound>
COc1cc(-c2ccc(F)c(F)c2)cc(OC)c1O

>  <pIC50>
4.15

$$$$
>  <compound>
CC(=O)N1N=C(c2ccc(O)cc2)CC1c1cccc(O)c1 (stereo not drawn)

>  <pIC50>
3.83

$$$$
>  <compound>
CCCSCc1cc(=O)c(O)co1

>  <pIC50>
5.71

$$$$

a. COc1cc(/C=C2\SC(=S)NC2=O)ccc1O
b. COc1cccc(OC(=O)COC(=O)/C=C/c2ccccc2O)c1
Pick one, a or b : lowest reported pIC50. Indicate which entry you chose by stating its label.
a

A. O=C(NCc1ccc(O)cc1O)c1cc(C23CC4CC(CC(C4)C2)C3)c(O)cc1O
B. O=C1OC(c2ccc(/N=N/c3ccc(N4CCOCC4)cc3)cc2)=N/C1=C/c1ccccc1
C. Cn1c(/C=N/N=C(/N)S)cc2ccccc21
D. CCCCCCSCc1cc(=O)c(O)co1
Rank the 4 compounds: largest pIC50 first, smallest last. In plain terms: list the labels in the order you were asked to.
D, A, B, C
(D: 6.72, A: 5.96, B: 4.76, C: 2.77)

I. C/C(=N/NC(N)=S)c1cnccn1
II. Oc1ccc(C2CC(c3ccccc3O)=NN2)cc1 (stereo not drawn)
III. CCCCC(=O)Nc1cccc(/C(C)=N/NC(N)=S)c1
Rank the 3 compounds: largest pIC50 first, smallest last. In plain terms: list the labels in the order you were asked to.
I, III, II
(I: 6.06, III: 5.81, II: 4.93)

P. Cc1nnc(SCc2cc(=O)c(O)co2)n1NCc1ccccc1O
Q. COc1ccc(OC)c(/C=C/C(=N\O)c2cc3ccccc3cc2O)c1
R. COC(=O)CNC(=O)COc1ccc(C=O)cc1
Ascending by pIC50, please: list the compounds accordingly. In plain terms: list the labels in the order you were asked to.
R, Q, P
